Parameter: EC50. Scope: all listed entries.
System: HCV 1a-H77 subgenomic replicon
EXPERIMENT: microbe, parasite or virus in culture
Type: cell-based, HCV genotype 1a
TEST SETTINGS: Hepatitis C virus, stable replicon, strain 1a H77, 5% FBS, no human plasma; read-out: 1a H77 5% FBS EC50
MEASUREMENT NAME: EC50 (µM)

- COMPOUND: "CC(C)CCN(c1cc2oc(-c3ccc(F)cc3)c(C3=NOCCN3)c2cc1C1CC1)S(C)(=O)=O [Example 10]"
  MEASUREMENT NAME: "EC50"
  NUMERIC RESULT: 0.0105
- COMPOUND: "CS(=O)(=O)N(CCc1csc(N)n1)c1cc2oc(-c3ccc(F)cc3)c(-c3ncc[nH]3)c2cc1C1CC1 [Example 97]"
  MEASUREMENT NAME: "EC50"
  NUMERIC RESULT: 0.108
- COMPOUND: "CC1NC(c2c(-c3ccc(F)cc3)oc3cc(N(CCS(C)(=O)=O)S(C)(=O)=O)c(C4CC4)cc23)=NO1 (stereo not drawn) [Example 12]"
  MEASUREMENT NAME: "EC50"
  NUMERIC RESULT: 0.0426
- COMPOUND: "CS(=O)(=O)Nc1cc2oc(-c3ccc(F)cc3)c(-c3nc(Cl)c[nH]3)c2cc1C1CC1 [Example 164]"
  MEASUREMENT NAME: "EC50"
  NUMERIC RESULT: 1
- COMPOUND: "CS(=O)(=O)Nc1cc2oc(-c3ccc(F)cc3)c(-c3nc(Cl)c(Cl)[nH]3)c2cc1C1CC1 [Example 163]"
  MEASUREMENT NAME: "EC50"
  NUMERIC RESULT: 7.83
- COMPOUND: "COc1ccc(CN(c2cc3oc(-c4ccc(F)cc4)c(-c4ncc[nH]4)c3cc2OC(C)C)S(C)(=O)=O)cc1 [Example 170]"
  MEASUREMENT NAME: "EC50"
  NUMERIC RESULT: 0.54
- COMPOUND: "CC(C)CN(c1cc2oc(-c3ccc(F)cc3)c(-c3ncc[nH]3)c2cc1C1CC1)S(C)(=O)=O [Example 66]"
  MEASUREMENT NAME: "EC50"
  NUMERIC RESULT: 0.0598
- COMPOUND: "CC(C)(O)C(O)CCN(c1cc2oc(-c3ccc(F)cc3)c(-c3ncc[nH]3)c2cc1C1CC1)S(C)(=O)=O (stereo not drawn) [Example 84]"
  MEASUREMENT NAME: "EC50"
  NUMERIC RESULT: 0.0149
- COMPOUND: "CS(=O)(=O)N(CCC1CCCCC1)c1cc2oc(-c3ccc(F)cc3)c(-c3ncc[nH]3)c2cc1C1CC1 [Example 72]"
  MEASUREMENT NAME: "EC50"
  NUMERIC RESULT: 0.0737
- COMPOUND: "CC(C)CCN(c1cc2oc(-c3ccc(F)cc3)c(C3=NOC(C)(C)N3)c2cc1C1CC1)S(C)(=O)=O [Example 152]"
  MEASUREMENT NAME: "EC50"
  NUMERIC RESULT: 10
- COMPOUND: "CS(=O)(=O)N(CCCc1ccccc1)c1cc2oc(-c3ccc(F)cc3)c(-c3ncc[nH]3)c2cc1C1CC1 [Example 41]"
  MEASUREMENT NAME: "EC50"
  NUMERIC RESULT: 0.073
- COMPOUND: "CC1NC(c2c(-c3ccc(F)cc3)oc3cc(N(CCO)S(C)(=O)=O)c(C4CC4)cc23)=NO1 (stereo not drawn) [Example 158]"
  MEASUREMENT NAME: "EC50"
  NUMERIC RESULT: 0.0233
- COMPOUND: "CS(=O)(=O)N(CCCCO)c1cc2oc(-c3ccc(F)cc3)c(C3=NOCCN3)c2cc1C1CC1 [Example 8]"
  MEASUREMENT NAME: "EC50"
  NUMERIC RESULT: 0.0063
- COMPOUND: "CS(=O)(=O)N(Cc1sc(Br)nc1C(F)(F)F)c1ccc2c(-c3ncc[nH]3)c(-c3ccccc3)oc2c1 [Example 22]"
  MEASUREMENT NAME: "EC50"
  NUMERIC RESULT: 2.38
- COMPOUND: "CS(=O)(=O)N(CCCCCO)c1cc2oc(-c3ccc(F)cc3)c(-c3ncc[nH]3)c2cc1C1CC1 [Example 88]"
  MEASUREMENT NAME: "EC50"
  NUMERIC RESULT: 0.0041

---

TEST SYSTEM: HCV NS5B polymerase 1a-H77-C316Y (Hepatitis C virus genotype 1a, UniProt P27958, C2736Y)
Construct: six-histidine tag
Sequence (P27958 2421-2990 C2736Y): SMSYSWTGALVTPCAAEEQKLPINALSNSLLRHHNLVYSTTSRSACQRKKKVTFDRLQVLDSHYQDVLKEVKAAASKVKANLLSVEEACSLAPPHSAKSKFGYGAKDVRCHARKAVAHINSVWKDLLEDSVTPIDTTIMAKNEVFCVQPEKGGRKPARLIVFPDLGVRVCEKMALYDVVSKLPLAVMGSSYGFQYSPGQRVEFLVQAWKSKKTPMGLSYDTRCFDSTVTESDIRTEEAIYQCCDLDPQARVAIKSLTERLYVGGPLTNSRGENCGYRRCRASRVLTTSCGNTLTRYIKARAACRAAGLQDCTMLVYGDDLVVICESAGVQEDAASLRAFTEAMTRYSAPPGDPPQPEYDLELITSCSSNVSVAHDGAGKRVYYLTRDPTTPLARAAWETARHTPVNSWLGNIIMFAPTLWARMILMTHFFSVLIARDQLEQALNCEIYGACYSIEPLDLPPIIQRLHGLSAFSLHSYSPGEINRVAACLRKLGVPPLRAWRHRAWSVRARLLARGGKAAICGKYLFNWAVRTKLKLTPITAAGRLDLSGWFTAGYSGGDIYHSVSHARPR
EXPERIMENT: biochemical
pIC50: −log10 of the molar value.
Reported pIC50 values for a set of molecules
MEASUREMENT NAME: pIC50

- MOLECULE: "CN(C)CCCN(c1cc2oc(-c3ccc(F)cc3)c(-c3ncc[nH]3)c2cc1C1CC1)S(C)(=O)=O [Example 59]"
  NUMERIC RESULT: 5.82
- MOLECULE: "CCOP(=O)(CCCN(c1cc2oc(-c3ccc(F)cc3)c(C3=NOCCN3)c2cc1C1CC1)S(C)(=O)=O)OCC [Example 116]"
  NUMERIC RESULT: 7.20
- MOLECULE: "CS(=O)(=O)N(CC1CCCO1)c1cc2oc(-c3ccc(F)cc3)c(-c3ncc[nH]3)c2cc1C1CC1 (stereo not shown) [Example 75]"
  NUMERIC RESULT: 5.80
- MOLECULE: "CS(=O)(=O)CCCCN(c1cc2oc(-c3ccc(F)cc3)c(-c3ncc[nH]3)c2cc1C1CC1)S(C)(=O)=O [Example 6]"
  NUMERIC RESULT: 7.16

---

TEST SYSTEM: HCV NS5B polymerase 1a-H77 (Hepatitis C virus genotype 1a, UniProt P27958)
Construct: six-histidine tag; made in house; host or cells: E. coli
Sequence (P27958 2421-2990): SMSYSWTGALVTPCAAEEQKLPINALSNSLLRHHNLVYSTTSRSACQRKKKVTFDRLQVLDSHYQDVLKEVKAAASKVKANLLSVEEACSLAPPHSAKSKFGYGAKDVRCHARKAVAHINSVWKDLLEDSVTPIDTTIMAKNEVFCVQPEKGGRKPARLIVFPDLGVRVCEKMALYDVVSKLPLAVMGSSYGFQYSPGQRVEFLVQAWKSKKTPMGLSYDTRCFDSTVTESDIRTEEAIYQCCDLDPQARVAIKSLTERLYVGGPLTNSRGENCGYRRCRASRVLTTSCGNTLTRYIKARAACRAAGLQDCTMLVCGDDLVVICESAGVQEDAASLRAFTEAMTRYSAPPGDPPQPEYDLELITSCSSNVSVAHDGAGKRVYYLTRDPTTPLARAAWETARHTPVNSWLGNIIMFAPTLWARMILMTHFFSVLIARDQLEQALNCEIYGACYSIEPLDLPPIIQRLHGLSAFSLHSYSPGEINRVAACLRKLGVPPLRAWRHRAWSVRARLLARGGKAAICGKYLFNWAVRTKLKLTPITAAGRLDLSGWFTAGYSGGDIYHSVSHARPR
EXPERIMENT: biochemical
Parameters: species or system HCV genotype 1a
TEST SETTINGS: enzyme, strain 1a H77; read-out: HCV Polymerase Strain 1a H77 IC50
pIC50: −log10 of the molar value.

- CHEMICAL STRUCTURE: "CS(=O)(=O)N(CCCC#N)c1cc2oc(-c3ccc(F)cc3)c(C3=NOCCN3)c2cc1C1CC1"
  TEST SYSTEM: "HCV NS5B polymerase 1a-H77 (Hepatitis C virus genotype 1a, UniProt P27958)"
  pIC50: 8.10
- CHEMICAL STRUCTURE: "[2H]C1([2H])NC(c2c(-c3ccc(F)cc3)oc3cc(N(CCCCS(C)(=O)=O)S(C)(=O)=O)c(C4CC4)cc23)=NO1"
  TEST SYSTEM: "HCV NS5B polymerase 1a-H77 (Hepatitis C virus genotype 1a, UniProt P27958)"
  pIC50: 8.40
- CHEMICAL STRUCTURE: "CCCCN(c1cc2oc(-c3ccc(F)cc3)c(-c3ncc[nH]3)c2cc1C1CC1)S(C)(=O)=O"
  TEST SYSTEM: "HCV NS5B polymerase 1a-H77 (Hepatitis C virus genotype 1a, UniProt P27958)"
  pIC50: 8.30
- CHEMICAL STRUCTURE: "CS(=O)(=O)N(CCCS(=O)(=O)c1ccccc1)c1cc2oc(-c3ccc(F)cc3)c(-c3ncc[nH]3)c2cc1C1CC1"
  TEST SYSTEM: "HCV NS5B polymerase 1a-H77 (Hepatitis C virus genotype 1a, UniProt P27958)"
  pIC50: 8.46

---

Tested on: HCV 1b-BB7 subgenomic replicon
EXPERIMENT: microbe, parasite or virus in culture
Assay type: cell-based, HCV genotype 1b
TEST SETTINGS: Hepatitis C virus, stable replicon, strain 1b BB7, 5% FBS, no human plasma; read-out: 1b BB7 5% FBS EC50
pEC50: −log10 of the molar value.
# binarize pEC50: threshold 7 inclusive, high side Criterion met, low side Criterion not met

- MOLECULE: "CCOC(=O)CN(c1cc2oc(-c3ccc(F)cc3)c(-c3ncc[nH]3)c2cc1C1CC1)S(C)(=O)=O [Example 33]"
  GROUP: "Criterion not met"
- MOLECULE: "CS(=O)(=O)N(CCCN1CCCCC1)c1cc2oc(-c3ccc(F)cc3)c(C3=NOCCN3)c2cc1C1CC1 [Example 130]"
  GROUP: "Criterion met"
- MOLECULE: "CS(=O)(=O)CCCCN(c1cc2oc(-c3ccc(F)cc3)c(C3=NOCCN3)c2cc1C1CC1)S(C)(=O)=O [Example 122]"
  GROUP: "Criterion met"

---

TEST SYSTEM: HCV NS5B polymerase 1b BK strain (Hepatitis C virus genotype 1b, UniProt P26663)
Construct: six-histidine tag; made in house; host or cells: E. coli
Sequence (P26663 2420-2989): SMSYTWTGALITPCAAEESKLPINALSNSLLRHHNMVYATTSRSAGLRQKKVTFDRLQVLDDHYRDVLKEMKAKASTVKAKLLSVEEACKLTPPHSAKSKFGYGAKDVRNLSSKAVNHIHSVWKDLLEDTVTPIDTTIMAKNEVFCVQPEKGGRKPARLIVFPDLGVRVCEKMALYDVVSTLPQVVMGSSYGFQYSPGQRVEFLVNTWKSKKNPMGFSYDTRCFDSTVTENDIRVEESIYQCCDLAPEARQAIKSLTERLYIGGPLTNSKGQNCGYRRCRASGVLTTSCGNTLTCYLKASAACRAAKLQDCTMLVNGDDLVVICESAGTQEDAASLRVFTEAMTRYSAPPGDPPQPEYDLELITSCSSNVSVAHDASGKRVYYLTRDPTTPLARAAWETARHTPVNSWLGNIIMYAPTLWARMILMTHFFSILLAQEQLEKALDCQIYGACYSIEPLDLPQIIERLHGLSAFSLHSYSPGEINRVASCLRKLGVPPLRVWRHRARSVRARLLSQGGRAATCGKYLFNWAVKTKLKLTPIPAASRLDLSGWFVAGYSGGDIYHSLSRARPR
EXPERIMENT: HCV NS5B polymerase enzymatic inhibition assay, strain 1b BK
Assay type: biochemical
TEST SETTINGS: enzyme, strain 1b BK; read-out: HCV Polymerase Strain 1b BK IC50
pIC50: −log10 of the molar value.
Here the recorded pIC50 is given for each entry.

- MOLECULE: "CC(=O)OCCCCCN(c1cc2oc(-c3ccc(F)cc3)c(-c3ncc[nH]3)c2cc1C1CC1)S(C)(=O)=O"
  pIC50: 7.96
- MOLECULE: "CCCC1NC(c2c(-c3ccc(F)cc3)oc3cc(N(CCC(C)C)S(C)(=O)=O)c(C4CC4)cc23)=NO1 (centres unmarked)"
  pIC50: 4.20
- MOLECULE: "CS(=O)(=O)N(CCc1csc(N)n1)c1cc2oc(-c3ccc(F)cc3)c(-c3ncc[nH]3)c2cc1C1CC1"
  pIC50: 7.41
- MOLECULE: "Cc1ncsc1CCN(c1cc2oc(-c3ccc(F)cc3)c(-c3ncc[nH]3)c2cc1C1CC1)S(C)(=O)=O"
  pIC50: 7.89
- MOLECULE: "CS(=O)(=O)N(Cc1cnc(-c2ccc3nc[nH]c3c2)s1)c1ccc2c(-c3ncc[nH]3)c(-c3ccccc3)oc2c1"
  pIC50: 8.00
- MOLECULE: "CS(=O)(=O)N(CCCc1nnn[nH]1)c1cc2oc(-c3ccc(F)cc3)c(C3=NOCCN3)c2cc1C1CC1"
  pIC50: 7.49
- MOLECULE: "CS(=O)(=O)N(CCCC(N)=O)c1cc2oc(-c3ccc(F)cc3)c(-c3ncc[nH]3)c2cc1C1CC1"
  pIC50: 7.55
- MOLECULE: "CNS(=O)(=O)CCCN(c1cc2oc(-c3ccc(F)cc3)c(-c3ncc[nH]3)c2cc1C1CC1)S(C)(=O)=O"
  pIC50: 7.74
- MOLECULE: "CS(=O)(=O)N(CCC(O)CO)c1cc2oc(-c3ccc(F)cc3)c(-c3ncc[nH]3)c2cc1C1CC1 (centres unmarked)"
  pIC50: 7.92
- MOLECULE: "CN(C)CCCN(c1cc2oc(-c3ccc(F)cc3)c(C3=NOCCN3)c2cc1C1CC1)S(C)(=O)=O"
  pIC50: 6.52
- MOLECULE: "CS(=O)(=O)N(CC(O)CO)c1cc2oc(-c3ccc(F)cc3)c(-c3ncc[nH]3)c2cc1C1CC1 (centres unmarked)"
  pIC50: 6.93
- MOLECULE: "CS(=O)(=O)N(CCCC(F)(F)F)c1cc2oc(-c3ccc(F)cc3)c(C3=NOCCN3)c2cc1C1CC1"
  pIC50: 7.51
- MOLECULE: "CS(=O)(=O)N(Cc1cnc(-c2cccc(CO)c2)s1)c1ccc2c(-c3ncc[nH]3)c(-c3ccccc3)oc2c1"
  pIC50: 7.92
- MOLECULE: "CS(=O)(=O)N(CCN1CCCC1)c1cc2oc(-c3ccc(F)cc3)c(C3=NOCCN3)c2cc1C1CC1"
  pIC50: 6.18
